# TESTED_SYSTEM: TTR F87M L110M (monomeric TTR, mTTR), untagged (human, UniProt P02766 21-147)
# EXPERIMENT_SUMMARY: sandwich ELISA, antibody coated, untagged mTTR, HRP pan-TTR polyclonal detection
pEC50: −log10 of the molar value.
binders and their reported pEC50

Examples with answers:
murine anti-human monomer TTR antibody Ab5 (antibody, V domains shown, Murine monoclonal antibody; entries are called Mouse Ab5 HC / LC but hold only the variable domains; also called mAb 5; Antibody 5) VH: EVQLQQSGAELVKPGASVKLSCTASGFNIKDYYMHWVKQRTEQGLEWIGRIDPEDGETKYAPKFQGKATITADTSSNTAYLQLSSLTSEDTAVYYCALLWLRRGRGYWGQGTTLTVSS VL: DIQMTQSPSSLSASLGERVSLTCRASQEISGYLSWLQQKPDGTIKRLIYAASTLDSGVPKRFSGSRSGSDYSLTISSLESEDFADYYCLQYASYPPTFGAGTKLELK    ~7.85
murine anti-human monomer TTR antibody Ab6 (antibody, V domains shown, Murine monoclonal antibody; entries are called Mouse Ab6 HC / LC but hold only the variable domains; also called Antibody 6) VH: QVQLQQSGAELMKPGASVKLSCKATGYTFTGYWIEWVKQRPGHGLEWIGEILPGSGSTNYNEKFKGKATFTADTSSNTAYMQLSSLTTEDSAIYYCARLRGSSYPWYFDYWGQGTTLTVSS VL: DIQMTQSPASLSVSVGETVTITCRASENIYSNLAWYQQKQGKSPQLLVYAATNLADGVPSRFSGSGSGTQYSLKINSLQSEDFGSYYCQHFWGTPYTFGGGTKLEIK    ~7.90

Request: Fill in the blank: the reported pEC50 of murine anti-human monomer TTR antibody Ab7 (antibody, V domains shown, Murine monoclonal antibody; entries are called Mouse Ab7 HC / LC but hold only the variable domains; also called Antibody 7) VH: EVQLQQSGAELVKPGASVKLSCTASGFNIKDYYMHWVKQRTEQGLEWIGRIDPEDGETKYAPKFQGKATITADTSSNTAYLQLSSLTSEDTAVYYCARGKTPFAYWGQGTLVTVSA VL: DIQMTQSPSSLSASLGERVSLTCRASQEISGYLSWLQQKPDGTIKRLIYAASTLDFGVPKRFSGSRFGSDYSLTISSLESEDFADYYCLQYDSYPFTFGSGTKLEIK is ____.
Response: ~7.36
